Listed molecules paired with reported LOAEL Neurons EF1α
# System: EF1α promoter
# condition-summary: ESC-derived neurons, 48 h exposure
Square brackets hold non-standard residues; d marks the D form. Peptide text beside a SMILES is read from it. * marks the point of attachment. Fmoc = O=C(OCC1c2ccccc2-c2ccccc21)*; Cha = N[C@@H](CC1CCCCC1)C(=O)O; AMC = Cc1cc(=O)oc2cc(N*)ccc12
Numeric only. Scale: µM

# molecule, unit-descriptor, LOAEL Neurons EF1α
records = [
    ("COC(=O)c1ccc2c(c1)NC(=O)/C2=C(\\Nc1ccc(N(C)C(=O)CN2CCN(C)CC2)cc1)c1ccccc1", "µM", 5),
    ("C[C@]12CC[C@H](O)CC1=CC[C@@H]1[C@@H]2CC[C@]2(C)C(c3cccnc3)=CC[C@@H]12", "µM", 2),
    ("O=C(/C=C/c1cccc(S(=O)(=O)Nc2ccccc2)c1)NO", "µM", 50),
]

Proceed to the following item.
Entry Cc1cc(=O)oc2cc(NC(=O)[C@H](CCCCN)NC(=O)[C@H](CC3CCCCC3)NC(=O)OCC3c4ccccc4-c4ccccc43)ccc12 [Galnon] (Fmoc-[Cha]-Lys-{AMC}) , tested on EF1α promoter, has a reported LOAEL Neurons EF1α of 5

----------
# Test system: CGR8-2Luc ESCs
# condition-summary: undifferentiated ESCs, 48 h exposure, PI assay (cytotoxicity)
Square brackets hold non-standard residues; d marks the D form. Peptide text beside a SMILES is read from it. * marks the point of attachment. Fmoc = O=C(OCC1c2ccccc2-c2ccccc21)*; Cha = N[C@@H](CC1CCCCC1)C(=O)O; AMC = Cc1cc(=O)oc2cc(N*)ccc12
Listed molecules paired with reported LOAEL ESC DNA

Completed entries (count: 2):
# molecule, observed-value
rows = [
    ("Cc1cc(=O)oc2cc(NC(=O)[C@H](CCCCN)NC(=O)[C@H](CC3CCCCC3)NC(=O)OCC3c4ccccc4-c4ccccc43)ccc12 [Galnon] (Fmoc-[Cha]-Lys-{AMC})", "20 µM"),
    ("OC[C@@H](O)[C@@H](O)[C@H](O)[C@H](O)CO", ">50 µM"),
]

get_value(item= CC(C1CC1)C(O)(Cn1cncn1)c1ccc(Cl)cc1 (stereo not drawn) , readout=LOAEL ESC DNA) returns >50 µM

----------
# Test system: Tubulin α1 (Tα1) promoter
# assay-text: cells
# condition-summary: ESC-derived neurons, 48 h exposure
# Experimental: Dual luciferase expressing CGR8-2Luc cells were obtained by transduction of mouse ESC CGR8 cells with the 2K7 EFS-Renilla Luciferase (RLuc)/Talpha1-Firefly Luciferase (FLuc) vector as previously described (Suter et al. [2006], [2009]); EFS corresponds to the short promoter of the eukaryotic translation elongation factor 1 alpha (EF1α), and Talpha1 to the Tubulin α1 (Tα1) promoter. […] Luciferase activities were measured with a Dual-Luciferase™ Reporter system kit. […]
quantity-kind: LOAEL Neurons Tα1 (µM)
Numeric only. Scale: µM

Completed entries (count: 4):
# compound, observed-value
data = [
    ("COC(=O)c1ccc2c(c1)NC(=O)/C2=C(\\Nc1ccc(N(C)C(=O)CN2CCN(C)CC2)cc1)c1ccccc1 [Nintedanib]", 0.05),
    ("COCC(=O)O [Methoxyacetic acid]", 50),
    ("C/C(O)=C(\\C#N)C(=O)Nc1ccc(C(F)(F)F)cc1 [Teriflunomide]", 50),
    ("Nc1ccccc1NC(=O)c1ccc(CNC(=O)OCc2cccnc2)cc1 [Entinostat]", 0.5),
]

get_value(item= Cc1[nH]c2ccccc2c1CCNCc1ccc(/C=C/C(=O)NO)cc1 [Panobinostat] , readout=LOAEL Neurons Tα1) returns 0.0005

get_value(item= CCC[C@H](NC(=O)[C@@H]1[C@H]2CCC[C@H]2CN1C(=O)[C@@H](NC(=O)[C@@H](NC(=O)c1cnccn1)C1CCCCC1)C(C)(C)C)C(=O)C(=O)NC1CC1 [Telaprevir] , readout=LOAEL Neurons Tα1) returns 50

Where these numbers come from: paper PMC5225183
